# targetSystem: pooled human IgG
propertyLabel: Enzyme Activity Endpoint Assay (purified): IgG (ng/µL)
Give the number; ng/µL is assumed, so skip it.

[Q] Which Enzyme Activity Endpoint Assay (purified): IgG reading was recorded for the protein PRT-134 (protein) MRNATEAYAKEVPHQITSVWTKGVTPLTPEQFRYNNEDVIHAPYLAHQGWYDITKAFDGKDNLLCGAATAGNMLHWWFDQNKTEIEAYLSKHPEKQKIIFNNQELFDLKAAIDTKDSQTNSQLFNYFRDKAFPNLSARQLGVMPDLVLDMFINGYYLNVFKTQSTDVNRPYQDKDKRGGIFDAVFTRGDQTTLLTARHDLKNKGLNDISTLIKQELTEGRALALSHTYANVSISHVINLWGADFNAEGNLEAIYVTDSDANASIGMKKYFVGINAHGHVAISAKKIEGENIGAQVLGLFTLSSGKDIWQKLS ?
[A] 0

[Q] Which Enzyme Activity Endpoint Assay (purified): IgG reading was recorded for the protein PRT-615 (protein) MQITSVWTKGVTPLTPEQFRYNNEDVIHAPYLAHQGWYDITKAFDGKDNLLCGAATAGNMLHWWFDQNKTEIEAYLSKYPEKQKIIFNNQELFDLRAAINTKDSQTNSQLFNYFRDKAFPNLSARQLGVMPDLVLDMFINGYYLNVFKTQSTDVNRPYQDKDKRGGIFDAVFNRGDQTTLLTARHDLKNKGLNDISTIIKQELSSGRALALSHTYANVSISHVINLWGADFNAEGNLEAIYVTDSDANSNIGMKKYKVGINAHGHVAISAKKIEGENIGAQVLGLFTLSSGKDIWQKLSLEHHHHHH ?
[A] 0
